Every entry's value here was drawn from patent US11098040B2.

- PROTOCOL DESCRIPTION: PK profile, IV plasma concentration and PK parameters
- Assay type: in vivo
- CONDITION DETAILS: Balb/C nude, mouse, iv, 5 mg/kg, 30% Kolliphor EL in water (Table 10b), read-out: AUCInf
PROPERTY: AUC(0-inf)

Q: Tell me the measured AUC(0-inf) of C#CC(=O)N1[C@@H](CCCC)Cc2c([nH]c3c(F)cc(F)cc23)[C@@H]1c1ccc(F)cc1 , please.
A: 5920 ng·h/mL

====

- PROTOCOL DESCRIPTION: Whole blood stability, mouse
- Type: in vitro ADME
- CONDITION DETAILS: 60 min
- Text: The results of the assay on stability in blood and IC50 values for pancreatic cancer cell line KP4 are given below in Table 24.
PROPERTY: Whole Blood Stability % Remaining at 37° C. Mouse (%)
One number for each entry, in %.

The following compounds each have a reported value; give each one's Whole Blood Stability % Remaining at 37° C. Mouse.
1. COC(=O)c1ccc([C@H]2c3sc4ccccc4c3C[C@H](C(=O)OC)N2C(=O)CCl)cc1 [Example 55c]
2. COC(=O)c1ccc([C@H]2c3[nH]c4ccccc4c3C[C@H](C(=O)OC(C)(C)C)N2C(=O)CCl)cc1 [Compound 2]
3. COC(=O)c1ccc([C@@H]2c3c(c4ccccc4n3C)C[C@H](C(=O)OC)N2C(=O)CCl)cc1 [Compound 73]
4. COC(=O)[C@H]1Cc2c([nH]c3ccccc23)[C@H](c2ccc(S(=O)(=O)NCC3CC3)cc2)N1C(=O)CCl [Compound 82]
5. COC(=O)[C@H]1Cc2c([nH]c3ccccc23)[C@H](c2ccc(C(=O)NCCN3CCOCC3)cc2)N1C(=O)CCl [Compound 27]

A:
1. 0.0
2. 0.1
3. 1.1
4. 21.7
5. 73.2

====

- PROTOCOL DESCRIPTION: Whole blood stability, human
- Format: in vitro ADME
- CONDITION DETAILS: 60 min
PROPERTY: Whole Blood Stability % Remaining at 37° C. Human (%)
Answers are plain numbers, in %.

{"columns": ["QUERY SMILES", "RECORDED RESULT"],
 "data": [
  ["COC(=O)c1ccc([C@H]2c3c(c4ccccc4n3C)C[C@H](C(=O)OC)N2C(=O)CCl)cc1", 7.0],
  ["COC(=O)[C@H]1Cc2c([nH]c3ccccc23)[C@H](c2ccc(S(=O)(=O)N[C@]34C[C@H]5C[C@H](C[C@H](C5)C3)C4)cc2)N1C(=O)/C=C/CCl", 38.1]
]}

Q: Tell me the measured Whole Blood Stability % Remaining at 37° C. Human of COC(=O)[C@H]1Cc2c([nH]c3ccccc23)[C@H](c2ccc(C(=O)OCC3(C)CC3)cc2)N1C(=O)CCl , please.
A: 58.3

====

- Test system: A549
- PROTOCOL DESCRIPTION: Cell viability assay, A549 cells
- Format: cell-based
- CONDITION DETAILS: Homo sapiens, A549, Cell Line A549; read-out: IC50
hey, just use true if measured IC50 is less than 8 µM, otherwise false

Study these solved cases before continuing.
{"columns": ["QUERY SMILES", "CLASS ASSIGNMENT"],
 "data": [
  ["C=C(C(=O)N1[C@@H](CCCC)Cc2c([nH]c3ccccc23)[C@@H]1c1ccc(F)cc1)C(F)(F)F", "false"],
  ["C=CC(=O)N1[C@@H](c2ccc(N3CCOCC3)cc2)c2[nH]c3ccccc3c2C[C@@H]1C", "false"],
  ["C#CC(=O)N1[C@@H](c2c(F)cc(F)cc2F)c2[nH]c3ccccc3c2C[C@@H]1C", "true"]
]}

Q: Is 8 µM strictly greater than the compound's reported IC50? compound: C#CC(=O)N1[C@@H](CCCC)Cc2c([nH]c3c(F)cc(F)cc23)[C@@H]1c1ccc(F)cc1
A: true

Q: Is 8 µM strictly greater than the compound's reported IC50? compound: C#CC(=O)N1[C@@H](c2ccc(OC)cc2)c2[nH]c3ccccc3c2C[C@@H]1C
A: false

Q: Is 8 µM strictly greater than the compound's reported IC50? compound: C[C@H]1Cc2c([nH]c3ccccc23)[C@H](c2ccc(C3(O)CCOCC3)cc2)N1C(=O)CCl
A: true

Q: Is 8 µM strictly greater than the compound's reported IC50? compound: C[C@H]1Cc2c([nH]c3ccccc23)[C@H](c2ccc(F)cc2)N1C(=O)CCl
A: true

Q: Is 8 µM strictly greater than the compound's reported IC50? compound: C=CC(=O)N1[C@@H](c2ccc(C(=O)OC)cc2)c2[nH]c3ccccc3c2C[C@@H]1C(=O)OC
A: false

Q: Is 8 µM strictly greater than the compound's reported IC50? compound: C=C(F)C(=O)N1[C@@H](CCCC)Cc2c([nH]c3ccccc23)[C@@H]1c1ccc(F)cc1
A: false

Q: Is 8 µM strictly greater than the compound's reported IC50? compound: C[C@H]1Cc2c([nH]c3ccccc23)[C@H](C23CC(F)(C2)C3)N1C(=O)CCl
A: false
